Species on record: Mus musculus
Protocol Summary: Concentration required to inhibit electrically induced contractions in isolated mouse vas deferens preparation in vitro
Assay type: functional
Test Context: Mus musculus
Outcome Measure: IC50 (nM)
Form entry: value (nM) — number only.

Ask: Give its IC50 value. Item: Cc1c(C(=O)c2ccc3occc3c2)c2ccccc2n1CCN1CCOCC1
Result: 126

Ask: And what about the compound O=C(c1ccc2ccoc2c1)c1cn(CCN2CCOCC2)c2ccccc12 ?
Result: 40

Ask: And what about the compound Cc1c(C(=O)c2cccc3cccnc23)c2ccccc2n1CCN1CCOCC1 ?
Result: 129

Ask: And what about the compound CC(Cn1cc(C(=O)c2cccc3ccccc23)c2ccccc21)N1CCOCC1 (stereo not given) ?
Result: 60

---

Target Entity: Cannabinoid receptor 1 (Rattus norvegicus)
Protocol Summary: […] [3H]WIN-55212 binding to Cannabinoid receptor 1 in rat cerebellum membranes.
Format: cell membranes
Test Context: Membrane, concentration not given here
Would you mind telling me the reported inhibition of each entry?
Form entry: value (%) — number only.

Ask: Give its inhibition value. Item: COc1ccc(C(=O)c2c(F)n(CCN3CCOCC3)c3ccccc23)cc1
Result: 7

Ask: And what about the compound Cc1c(C(=O)c2ccccc2F)c2ccccc2n1CCN1CCOCC1 ?
Result: 15

Ask: And what about the compound Cc1ccccc1C(=O)c1c(C)n(CCN2CCOCC2)c2ccccc12 ?
Result: 13

Ask: And what about the compound CC(CN1CCOCC1)n1cc(C(=O)c2cccc3ccccc23)c2ccccc21 (racemic; form 2) ?
Result: 94

---

Species: Mus musculus
Protocol Summary: Concentration required to inhibit electrically induced contractions in isolated mouse vas deferens preparation in vitro
Assay type: functional
Test Context: Mus musculus
Would you mind telling me the reported IC50 of each entry?

Ask: Give its IC50 value. Item: Cc1c(C(=O)c2ccc3cccnc3c2)c2ccccc2n1CCN1CCOCC1
Result: 0.088 µM

Ask: And what about the compound COc1cccc(C(=O)c2c(C)n(CCN3CCOCC3)c3ccccc23)c1 ?
Result: 0.206 µM

Ask: And what about the compound O=C(c1cccc2occc12)c1cn(CCN2CCOCC2)c2ccccc12 ?
Result: 0.0077 µM

Ask: And what about the compound O=C(c1cccc2ccccc12)c1c(Cl)n(CCN2CCOCC2)c2ccccc12 ?
Result: 0.0061 µM

Ask: And what about the compound COc1ccc(C(=O)c2cn(C(C)CN3CCOCC3)c3ccccc23)cc1 (stereo unspecified) ?
Result: 3.67 µM

Ask: And what about the compound Cc1c(C(=O)c2cccc3ccccc23)c2ccccc2n1CCN1CCOCC1C (stereo unspecified) ?
Result: 0.207 µM

---

Species on record: Mus musculus
Protocol Summary: Concentration required to inhibit electrically induced contractions in isolated mouse vas deferens preparation in vitro
Type: functional
Test Context: Mus musculus
Outcome Measure: IC50

Ask: Give its IC50 value. Item: COc1ccc(C(=O)c2c(C)n(CCN3CCOCC3)c3cc(C)ccc23)cc1
Result: > 10000 nM

Ask: And what about the molecule Cc1c(C(=O)c2ccc3ccccc3n2)c2ccccc2n1CCN1CCOCC1 ?
Result: 99 nM

Ask: And what about the molecule COc1ccc(C(=O)c2c(C)n(CCN3CCOCC3)c3ccc(C)cc23)cc1 ?
Result: > 10000 nM

Ask: And what about the molecule COc1ccc(C(=O)c2c(C)n(CC[N+]3([O-])CCOCC3)c3ccccc23)cc1 ?
Result: > 10000 nM

Ask: And what about the molecule Cc1c(C(=O)c2ccc3ccc4cccc5ccc2c3c45)c2ccccc2n1CCN1CCOCC1 ?
Result: 42 nM

Ask: And what about the molecule O=C(c1cccc2c1CCCC2)c1cn(CCN2CCOCC2)c2ccccc12 ?
Result: 6 nM

Ask: And what about the molecule COc1ccc(C(=O)c2c(C)n(CCO)c3ccccc23)cc1 ?
Result: > 10000 nM

---

Species: Mus musculus
Protocol Summary: Concentration required to inhibit electrically induced contractions in isolated mouse vas deferens preparation in vitro
Type: functional
Test Context: Mus musculus
Output yes for records whose IC50 is lower than 60 nM, no for records at or above 60 nM.

Ask: Consider the compound COc1ccc(C(=O)c2c(C)n(CCN3CCNCC3)c3ccccc23)cc1 . Is its IC50 strictly less than 60 nM?
Result: no

Ask: And what about the compound Cc1c(C(=O)c2cccc3ccccc23)c2ccccc2n1CCN1CCN(C)CC1 ?
Result: no

Ask: And what about the compound COc1ccc(C(=O)c2c(C)n(CC(C)N3CCOCC3)c3ccccc23)cc1 (stereo not drawn) ?
Result: no

Ask: And what about the compound Cc1c(C(=O)c2c3ccccc3cc3ccccc23)c2ccccc2n1CCN1CCOCC1 ?
Result: no

Ask: And what about the compound Cc1ccc2c(C(=O)c3cccc4ccccc34)cn(CCN3CCOCC3)c2c1 ?
Result: yes

Ask: And what about the compound Cc1ccc(C(=O)c2cn(CCN3CCOCC3)c3ccccc23)c2ccccc12 ?
Result: yes

Ask: And what about the compound CCCCCc1cc(O)c2c(c1)OC(C)(C)[C@@H]1CCC(C)=C[C@@H]21 [DRONABINOL] ?
Result: yes

Ask: And what about the compound COc1ccc(C(=O)c2c(C)n(CCN3CCOCC3)c3ccc(F)cc23)cc1 ?
Result: no

Ask: And what about the compound CCc1c(C(=O)c2ccc(OC)cc2)c2ccccc2n1CCN1CCOCC1 ?
Result: no

Ask: And what about the compound Cc1ccc2c(C(=O)c3cccc4ccccc34)c(C)n(CCN3CCOCC3)c2c1 ?
Result: yes

Ask: And what about the compound COc1ccc(C(=O)c2c(C)n(CCN3CCOCC3)c3cc(Br)ccc23)cc1 ?
Result: no

Ask: And what about the compound Cc1c(C(=O)c2cccc3cc4ccccc4cc23)c2ccccc2n1CCN1CCOCC1 ?
Result: yes

Ask: And what about the compound Cc1c(C(=O)c2ccnc3ccccc23)c2ccccc2n1CCN1CCOCC1 ?
Result: no

---

Target Entity: Cannabinoid receptor 1 (Rattus norvegicus) (UniProt P20272)
Sequence (P20272 whole entry): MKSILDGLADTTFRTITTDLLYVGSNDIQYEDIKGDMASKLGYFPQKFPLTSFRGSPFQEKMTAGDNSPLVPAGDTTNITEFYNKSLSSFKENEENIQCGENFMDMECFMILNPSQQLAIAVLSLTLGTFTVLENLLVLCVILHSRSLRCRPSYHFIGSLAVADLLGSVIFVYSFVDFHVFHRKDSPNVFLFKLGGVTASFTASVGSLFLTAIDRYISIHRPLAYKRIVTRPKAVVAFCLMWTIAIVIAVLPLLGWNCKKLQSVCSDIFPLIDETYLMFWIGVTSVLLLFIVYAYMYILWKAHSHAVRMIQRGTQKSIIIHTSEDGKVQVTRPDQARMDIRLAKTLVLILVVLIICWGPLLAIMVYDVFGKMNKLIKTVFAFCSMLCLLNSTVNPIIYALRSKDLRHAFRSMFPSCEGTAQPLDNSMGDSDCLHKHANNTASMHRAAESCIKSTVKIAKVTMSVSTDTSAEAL
Protocol Summary: […] [3H]WIN-55212 binding to Cannabinoid receptor 1 in rat cerebellum membranes.
Type: cell membranes
Test Context: Membrane, concentration not given here
Would you mind telling me the reported inhibition of each entry?
Form entry: value (%) — number only.

Ask: Give its inhibition value. Item: COc1ccc(C(=O)c2c(C)n(CCN3CCOCC3)c3ccc(OC)cc23)cc1
Result: 14

Ask: And what about the compound Cc1cccc(C)c1C(=O)c1c(C)n(CCN2CCOCC2)c2ccccc12 ?
Result: -5

Ask: And what about the compound Cc1c(C(=O)c2ccccc2O)c2ccccc2n1CCN1CCOCC1 ?
Result: -2

Ask: And what about the compound Cc1c(C(=O)c2ccc(F)cc2)c2ccccc2n1CCN1CCOCC1 ?
Result: 12

Ask: And what about the compound Cc1c(C(=O)c2ccc(C#N)cc2)c2ccccc2n1CCN1CCOCC1 ?
Result: -1

Ask: And what about the compound COc1ccc(C(=O)c2c(Cl)n(CCN3CCOCC3)c3ccccc23)cc1 ?
Result: 47

Ask: And what about the compound C[N+]1(CCn2cc(C(=O)c3cccc4ccccc34)c3ccccc32)CCOCC1 ?
Result: 14

Ask: And what about the compound Cc1c(C(=O)c2cccc3ccccc23)c2ccccc2n1CCN1CCNCC1 ?
Result: -9
